Test system: SNB-19 CNS
Assay: NCI-60 one-dose screen, 48 h
Details: 10 µM unless noted
This is part of a sample that, as a whole, favours compounds with a hit. Of some 83,000 tested, about 20% had one in any assay. Activity calls are given as the source filed them. How the source made its calls: active means growth percent below 10; inactive means the rest.
Outcome (select one): 1 (yes) for active, 0 (no) for inactive

Worked examples, 6 compounds total:
- Compound: "O=C(NCCN1CCOCC1)Nc1ccc(-c2cc3c(Nc4ccc(Oc5cccc(C(F)(F)F)c5)c(Cl)c4)ncnc3s2)cc1"
  Label: "0 (no)"
- Compound: "O=C1c2cccc3cccc(c23)C(=O)N1CCCCN1CCN(CCCCOc2ccc(-c3nc4ccc(N5CCOCC5)cc4[nH]3)cc2)CC1"
  Label: "0 (no)"
- Compound: "C[n+]1ccccc1/C=C/c1ccc2cccc(O)c2n1"
  Label: "0 (no)"
- Compound: "COc1cccc(-c2nc3sccn3c2-c2ccnc(NCCNS(=O)(=O)c3ccccc3)c2)c1"
  Label: "0 (no)"
- Compound: "COc1cc(C2CC(=O)c3ccccc3N2)cc(OC)c1OC (stereo not drawn)"
  Label: "0 (no)"
- Compound: "O=C1c2ccccc2C(=O)c2c(N=Nc3[nH]c(=S)[nH]c3O)cccc21"
  Label: "0 (no)"

Problem: For COc1cccc2c1C(=O)c1c(O)c3c(c(O)c1C2=O)C[C@](O)(C(=O)CO)C[C@H]3O[C@@H]1C[C@@H](NC(=O)CCCN(C)C2(c3ccc(F)cc3)CC3CCC2C3)[C@H](O)[C@@H](C)O1 (stereo partly drawn) , what call appears in the results of this test?
Result: 1 (yes)

Problem: For Cc1cc(C)nc(SC2=C(Nc3cccc(Cl)c3)C(=O)N(Cc3ccccc3)C2=O)n1 , what call appears in the results of this test?
Result: 0 (no)

Problem: For N#Cc1c(-c2ccc(Cl)cc2)nc(N/N=C/c2cccc(Br)c2)nc1N1CCOCC1 , what call appears in the results of this test?
Result: 0 (no)

Problem: For COc1ccc(-c2cc(C(=O)N=Nc3c(O)[nH]c4ccc(Br)cc34)no2)cc1 , what call appears in the results of this test?
Result: 0 (no)

Problem: For CC(=O)c1cc2c(N)c(C(=O)Nc3cccc4ccccc34)sc2nc1C , what call appears in the results of this test?
Result: 0 (no)

Problem: For Fc1ccc2[nH]cc(SSc3c[nH]c4ccc(F)cc34)c2c1 , what call appears in the results of this test?
Result: 0 (no)

Problem: For CC1=C/C(=C(\c2ccc(N(C)C)cc2)c2ccc([N+](C)(C)C)cc2)C=CC1=[N+](C)C , what call appears in the results of this test?
Result: 0 (no)

Problem: For CSc1nc(Nc2cccc(NC(=O)/C(C#N)=C/c3c(Cl)cccc3Cl)c2)c(C#N)c(-c2cccc([N+](=O)[O-])c2)n1 , what call appears in the results of this test?
Result: 0 (no)

Problem: For COc1ccc2c(c1)C(=O)/C(=C/c1cccnc1)CC2 , what call appears in the results of this test?
Result: 0 (no)

Problem: For COc1ccccc1NS(=O)(=O)c1ccc2oc(SC(C)C)nc2c1 , what call appears in the results of this test?
Result: 0 (no)

Problem: For O=S(=O)(Nc1ccc(Cl)c(F)c1)c1ccc(-c2cnc(C3CC3)o2)cc1 , what call appears in the results of this test?
Result: 0 (no)

Problem: For COc1cccc(-c2nc3sccn3c2-c2ccnc(NCCCNS(=O)(=O)c3cccc(Cl)c3)c2)c1 , what call appears in the results of this test?
Result: 0 (no)

Problem: For CN1CCN(c2nc(NCCCNc3ccnc4cc(Cl)ccc34)c3ccccc3n2)CC1 , what call appears in the results of this test?
Result: 0 (no)

Problem: For Cc1cc(N2CCCCCC2)nc(NC2CCCC(Nc3ccnc4cc(Cl)ccc34)C2)n1 (stereo not drawn) , what call appears in the results of this test?
Result: 1 (yes)

====

System: M14 melanoma
Experiment: NCI-60 one-dose screen, 48 h (100 = growth as untreated, 0 = no growth, -100 = all killed)
Conditions: 10 µM unless noted
About 83,000 compounds went through this panel and 20% of them were active in at least one assay; those are over-represented in the sample as a whole.
Property: growth (%)
Give bare numbers, in %.

- Molecule: "COC(=O)c1ccc(Cn2cnc3c(N)ncnc32)cc1"
  System name: "M14 melanoma"
  growth [%]: 110
- Molecule: "C=CC(=O)Nc1cccc(-c2nc(SC)nc(Nc3cccc(OC)c3)c2C#N)c1"
  System name: "M14 melanoma"
  growth [%]: 60.6
- Molecule: "COc1ccc(SC2c3ccc(C)cc3Oc3nc(N)c(C#N)c(N)c32)cc1 (centres undefined)"
  System name: "M14 melanoma"
  growth [%]: -76.5
- Molecule: "CC(C)C1=C[C@@]23CC[C@@H]4[C@](C)(CCC[C@@]4(C)C(=O)N4CCCNCC4)[C@H]2C[C@@H]1[C@H]1C(=O)CCC(=O)[C@H]13"
  System name: "M14 melanoma"
  growth [%]: 93
- Molecule: "CN1CCN(CCCOc2cccc3nc(Nc4cc(Cl)cc(Cl)c4)ccc23)CC1"
  System name: "M14 melanoma"
  growth [%]: -55.7

Could you tell me growth for each of these molecules? They are listed below.
1. CN(Cc1cc(Cl)cc(Cl)c1O)Cc1cc(Cl)cc(Cl)c1O
2. CCCCn1c(-c2ccc(C(=O)O/N=C(\N)c3ccc4ccccc4c3)cc2)nc(-c2ccccc2)c1-c1ccccc1
3. Cn1nc(N)c2cc([C@@H]3Nc4ccc5[nH]ncc5c4[C@H]4C5CCC(C5)[C@@H]34)ccc21 (some centres undefined)

Result:
1: 71; 2: 82.6; 3: 3.16

Could you tell me growth for each of these molecules? They are listed below.
1. O=C1Nc2c(ccc(Cl)c2Cl)/C1=C\c1ccc(C(F)(F)F)cc1
2. COc1ccc(CCNc2nc3c(c(=O)n(Cc4ccc(Br)cc4)c(=O)n3C)n2C)cc1OC
3. Cc1ccc2oc(=O)cc(C3c4ccc([nH]4)C(c4cc(=O)oc5ccc(C)cc45)c4ccc([nH]4)C(c4cc(=O)oc5ccc(C)cc45)c4ccc([nH]4)C(c4cc(=O)oc5ccc(C)cc45)c4ccc3[nH]4)c2c1 (centres undefined)
4. COc1ccc(-n2nc(C)c3c(Nc4ccc(NC(=O)Nc5cc(C(F)(F)F)ccc5F)cc4)ncnc32)cc1

Result:
1: 98; 2: 101; 3: -71.9; 4: -29.6

====

System: HS 578T breast
Test: NCI-60 one-dose screen, 48 h
Settings: 10 µM unless noted
This is part of a sample that, as a whole, favours compounds with a hit. Of some 83,000 tested, about 20% had one in any assay. The source made the active and inactive calls. Rule for the calls: active = growth percent below 10; inactive = the rest.
Outcome (select one): active, inactive

- Compound: "COC(=O)c1ccc2oc(NC(=O)c3ccc(Nc4ccc([N+](=O)[O-])cc4C)c([N+](=O)[O-])c3)nc2c1"
  System name: "HS 578T breast"
  Label: "inactive"
- Compound: "Cn1c(NCCc2ccc(O)c(O)c2)nc2c1c(=O)n(Cc1ccc(Cl)c(Cl)c1)c(=O)n2C"
  System name: "HS 578T breast"
  Label: "inactive"
- Compound: "Nc1n[nH]c2ccc([C@@H]3Nc4ccc5cn[nH]c5c4[C@H]4C5CCC(C5)[C@@H]34)cc12 (stereo not given in full)"
  System name: "HS 578T breast"
  Label: "inactive"

// switching to the query compound
Problem: For CCOc1cc2ncc(C#N)c(Nc3ccc(F)c(Cl)c3)c2cc1NC(=O)CC1CCSS1 (stereo not given) , what call appears in the results of this test?
Result: active

====

System: COLO 205 colon
Assay: NCI-60 one-dose screen, 48 h
Details: 10 µM unless noted
Method: Cells are grown in 96 well plates and exposed to the test compound for 48 hours. Compounds are tested at a single concentration, which is 10^-5 M for most compounds. The reported endpoint is percent growth (GI% or GIPRCNT), where numbers from 0 - 100% represent growth inhibition, and numbers from -100% - 0 represent cell death. For example, a value of 40 represents 60% growth inhibition. A value of 0 means no net growth occurred over the course of the experiment. […]
Compounds without any hit were thinned out: in the full panel of roughly 83,000, 20% have a hit. Calls of active or inactive are those of the source. How the source made its calls: active means growth percent below 10; inactive means the rest.
Outcome (select one): true (1) (active), false (0) (inactive)

Worked examples, 5 compounds total:
- Compound: "CCCOc1ccc2nc(NC(=O)OC)[nH]c2c1"
  Label: "true (1)"
- Compound: "CCN(CC)c1ccc(-c2cc(-c3cc(OC)c(OC)c(OC)c3)nc(N3CCOCC3)c2C#N)cc1"
  Label: "true (1)"
- Compound: "C(=C\\c1nccc2c1[nH]c1ccccc12)/c1ccccc1"
  Label: "true (1)"
- Compound: "COc1cc(C=Nc2oc(-c3ccccc3)c(-c3ccccc3)c2C#N)cc(CN2CCCCC2)c1O"
  Label: "false (0)"
- Compound: "CC(C)CSc1nc(N)nc2c1ncn2C1OC(CO)C(O)C1O (stereo unspecified)"
  Label: "false (0)"

Problem: For CCOC(=O)n1cc(-c2nonc2-c2cn(C)c3ncccc23)c2cc(F)ccc21 , what call appears in the results of this test?
Result: false (0)

Problem: For COc1ccc(C2CC(c3ccc(Cl)cc3)=NN2/C=C2\SC(=S)N(NC(=O)Cc3ccccc3Nc3c(Cl)cccc3Cl)C2=O)cc1 (stereo unspecified) , what call appears in the results of this test?
Result: false (0)

Problem: For COc1ccc(-c2cc(-c3ccc(Nc4ccnc5cc(Cl)ccc45)cc3)nc(N3CCOCC3)n2)cc1 , what call appears in the results of this test?
Result: false (0)

Problem: For CC(=O)NCC1c2c(n(C)c3c(Cl)c(Cl)ccc23)C(=O)NC1(C)C (stereo unspecified) , what call appears in the results of this test?
Result: false (0)

Problem: For C#Cc1cccc(NC(=O)c2ccccc2NC(=O)C=C)c1 , what call appears in the results of this test?
Result: false (0)

Problem: For COc1ccc(-c2nc3ccc(-c4nc5ccc(N6CCN(c7ccc(F)cc7)CC6)cc5[nH]4)cc3[nH]2)cc1OC , what call appears in the results of this test?
Result: false (0)

Problem: For Nc1nc2ncc(CCNc3ccc(C(=O)O)cc3)nc2c(=O)[nH]1 , what call appears in the results of this test?
Result: false (0)

Problem: For Cc1cc(N2CCSCC2)nc(NC2CCCC(Nc3ccnc4cc(Cl)ccc34)C2)n1 (stereo unspecified) , what call appears in the results of this test?
Result: true (1)

Problem: For O=C1c2cc3c(cc2-c2c1c1ccc(F)cc1c(=O)n2CCCNCCO)OCO3 , what call appears in the results of this test?
Result: true (1)

Problem: For COc1ccc(S(=O)(=O)N2CCN(C)CC2)cc1NC(=O)c1[nH]c(C)c2c1CCCCC2=O , what call appears in the results of this test?
Result: false (0)

Problem: For Cc1nc2c3c(-c4ccccc4)c(-c4ccccc4)oc3ncn2n1 , what call appears in the results of this test?
Result: false (0)

Source: PubChem BioAssay (NCI)
